Tested on: COLO 205
test: Antiproliferative against human COLO 205 cells assessed as cell viability after 4 days by CCK-8 assay
Assay type: functional, cell-based
stated-conditions: COLO 205, 96 h
assay-metric: IC50 (nM)
All answers are understood in nM, so give the number only.

Example cases with answers are listed next.
Prompt: Name the recorded IC50 of the compound listed here: CCC(=O)N[C@H]1CC[C@@H](n2c(=O)cc(C)c3cnc(Nc4ccc(N5CCN(C(=O)CCCC#Cc6ccc7c(c6)CN(C6CCC(=O)N(C)C6=O)C7=O)CC5)cc4OC)nc32)CC1 (stereo not given in full)
Response: 1500

Prompt: Name the recorded IC50 of the compound listed here: "CCC(=O)N[C@H]1CC[C@@H](n2c(=O)cc(C)c3cnc(Nc4ccc(N5CCN(C)CC5)cc4OC)nc32)CC1"
Response: 800

Prompt: Name the recorded IC50 of the compound listed here: CCC(=O)N[C@H]1CC[C@@H](n2c(=O)cc(C)c3cnc(Nc4ccc(N5CCN(C(=O)CCCC#Cc6ccc7c(c6)CN(C6CCC(=O)NC6=O)C7=O)CC5)cc4OC)nc32)CC1 (stereo not given in full)
Response: 100

***
Prompt: Name the recorded IC50 of the compound listed here: CCC(=O)N[C@H]1CC[C@@H](n2c(=O)cc(C)c3cnc(Nc4ccc(N5CCN(C(=O)CCCCCC#Cc6ccc7c(c6)C(=O)N(C6CCC(=O)NC6=O)C7)CC5)cc4OC)nc32)CC1 (stereo not given in full)
Response: 200

Prompt: Name the recorded IC50 of the compound listed here: CCC(=O)N[C@H]1CC[C@@H](n2c(=O)cc(C)c3cnc(Nc4ccc(N5CCN(C(=O)CCCCCC#Cc6ccc7c(c6)C(=O)N(C6CCC(=O)N(C)C6=O)C7)CC5)cc4OC)nc32)CC1 (stereo not given in full)
Response: 1500

* * *

Property: Emax; scope: individual compounds
target-system: Protein cereblon/Dual specificity protein kinase TTK (Homo sapiens, UniProt P33981+Q96SW2)
Sequence (P33981 whole entry, looked up): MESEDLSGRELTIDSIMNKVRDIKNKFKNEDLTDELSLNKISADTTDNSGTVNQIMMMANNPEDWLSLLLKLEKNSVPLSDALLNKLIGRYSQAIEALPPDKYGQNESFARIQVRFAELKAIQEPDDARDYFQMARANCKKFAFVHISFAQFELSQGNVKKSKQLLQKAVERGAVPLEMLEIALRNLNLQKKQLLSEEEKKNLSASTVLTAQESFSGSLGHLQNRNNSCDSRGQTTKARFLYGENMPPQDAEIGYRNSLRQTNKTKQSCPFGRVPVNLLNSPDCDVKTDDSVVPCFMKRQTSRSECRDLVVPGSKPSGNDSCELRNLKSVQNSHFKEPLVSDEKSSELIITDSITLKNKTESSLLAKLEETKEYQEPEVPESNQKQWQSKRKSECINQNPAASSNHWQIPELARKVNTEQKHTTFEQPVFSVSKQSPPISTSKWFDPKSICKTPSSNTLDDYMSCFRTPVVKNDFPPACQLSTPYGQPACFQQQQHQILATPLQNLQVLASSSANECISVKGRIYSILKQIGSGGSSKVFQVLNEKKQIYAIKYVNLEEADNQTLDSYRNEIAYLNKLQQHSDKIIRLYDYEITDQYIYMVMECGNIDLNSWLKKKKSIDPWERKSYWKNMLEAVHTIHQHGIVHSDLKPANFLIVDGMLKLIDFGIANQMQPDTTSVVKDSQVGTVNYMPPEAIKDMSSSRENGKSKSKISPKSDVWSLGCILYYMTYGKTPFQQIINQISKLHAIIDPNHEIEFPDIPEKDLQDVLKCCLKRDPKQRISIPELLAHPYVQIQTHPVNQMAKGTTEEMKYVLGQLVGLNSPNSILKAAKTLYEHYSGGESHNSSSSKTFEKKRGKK
Sequence (Q96SW2 whole entry, looked up): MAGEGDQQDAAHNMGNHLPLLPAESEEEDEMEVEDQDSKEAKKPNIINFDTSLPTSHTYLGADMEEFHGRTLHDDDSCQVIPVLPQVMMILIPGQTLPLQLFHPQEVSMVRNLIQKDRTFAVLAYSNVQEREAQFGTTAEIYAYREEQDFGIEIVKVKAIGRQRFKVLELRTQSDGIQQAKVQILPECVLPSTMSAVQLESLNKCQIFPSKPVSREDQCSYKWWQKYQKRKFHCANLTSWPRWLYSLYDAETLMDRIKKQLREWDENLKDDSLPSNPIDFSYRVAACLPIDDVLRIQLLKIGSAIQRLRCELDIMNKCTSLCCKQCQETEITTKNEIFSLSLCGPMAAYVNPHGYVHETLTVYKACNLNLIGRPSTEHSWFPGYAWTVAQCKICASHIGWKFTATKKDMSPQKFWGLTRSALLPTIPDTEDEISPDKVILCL
test: Protac activity at CRBN/TTK in human HCT-116 cells assessed as TTK degradation by measuring maximum degradation after 6 hrs by Western blotting analysis relative to control
Type: cell-based
All answers are understood in %, so give the number only.

Prompt: Name the recorded Emax of the compound listed here: CCC(=O)N[C@H]1CC[C@@H](n2c(=O)cc(C)c3cnc(Nc4ccc(N5CCN(C(=O)CCCC#Cc6cccc7c6CN(C6CCC(=O)NC6=O)C7=O)CC5)cc4OC)nc32)CC1 (stereo not given in full)
Response: 43

Prompt: Name the recorded Emax of the compound listed here: CCC(=O)N[C@H]1CC[C@@H](n2c(=O)cc(C)c3cnc(Nc4ccc(N5CCN(C(=O)CCCCCCCCCC#Cc6ccc7c(c6)C(=O)N(C6CCC(=O)NC6=O)C7)CC5)cc4OC)nc32)CC1 (stereo not given in full)
Response: 66

Prompt: Name the recorded Emax of the compound listed here: CCC(=O)N[C@H]1CC[C@@H](n2c(=O)cc(C)c3cnc(Nc4ccc(N5CCN(C(=O)CCCCCC#Cc6cccc7c6C(=O)N(C6CCC(=O)NC6=O)C7)CC5)cc4OC)nc32)CC1 (stereo not given in full)
Response: 41

Prompt: Name the recorded Emax of the compound listed here: CCC(=O)N[C@H]1CC[C@@H](n2c(=O)cc(C)c3cnc(Nc4ccc(N5CCN(C(=O)CCCCCCCCCC#Cc6cccc7c6CN(C6CCC(=O)NC6=O)C7=O)CC5)cc4OC)nc32)CC1 (stereo not given in full)
Response: 66

Now, please, on to the next compound.
Prompt: Name the recorded Emax of the compound listed here: CCC(=O)N[C@H]1CC[C@@H](n2c(=O)cc(C)c3cnc(Nc4ccc(N5CCN(C(=O)CCCCCCCC#Cc6ccc7c(c6)CN(C6CCC(=O)NC6=O)C7=O)CC5)cc4OC)nc32)CC1 (stereo not given in full)
Response: 50
